Biological target: GSTA1 (GST-α) (Homo sapiens, UniProt P08263)
Assay: GST activity assay
Details: read-out: IC50 for inhibition of formation of the CDNB-GSH conjugate in the presence of GST-α; GSTA1 5 μg/mL, pH 6.8, absorption at 355 nm
pIC50: −log10 of the molar value.
Quantity measured: pIC50

>  <Compound>
C=C(CC)C(=O)c1ccc(OCC(=O)NCCCCF)c(Cl)c1Cl [FBuEA, fluorobutyl ethacrynic amide]

>  <Tested target>
GSTA1 (GST-α) (Homo sapiens, UniProt P08263)

>  <Quantity measured>
pIC50

>  <Measured number>
4.76

$$$$
